Conditions: in n-pentanol, 288.15 K
observedProperty: solubility (mole fraction)
Please reply with the number alone, leaving off any unit.

I am curious: what solubility (mole fraction) value has been reported for `CN(C)NC(=O)CCC(=O)O` ?
0.000191

----------
Settings: in acetonitrile, 303.15 K
observedProperty: solubility (mole fraction)
Please reply with the number alone, leaving off any unit.

I am curious: what solubility (mole fraction) value has been reported for `CN(C)NC(=O)CCC(=O)O` ?
0.000503

----------
Details: in 2-ethoxyethanol, 313.15 K
observedProperty: solubility (mole fraction)
Please reply with the number alone, leaving off any unit.

I am curious: what solubility (mole fraction) value has been reported for `CN(C)NC(=O)CCC(=O)O` ?
0.00767
